test-target: EGFR L858R/T790M/C797S (Homo sapiens (Human), UniProt P00533, C797S/L858R/T790M)
Sequence (P00533 25-1210 T790M/C797S/L858R): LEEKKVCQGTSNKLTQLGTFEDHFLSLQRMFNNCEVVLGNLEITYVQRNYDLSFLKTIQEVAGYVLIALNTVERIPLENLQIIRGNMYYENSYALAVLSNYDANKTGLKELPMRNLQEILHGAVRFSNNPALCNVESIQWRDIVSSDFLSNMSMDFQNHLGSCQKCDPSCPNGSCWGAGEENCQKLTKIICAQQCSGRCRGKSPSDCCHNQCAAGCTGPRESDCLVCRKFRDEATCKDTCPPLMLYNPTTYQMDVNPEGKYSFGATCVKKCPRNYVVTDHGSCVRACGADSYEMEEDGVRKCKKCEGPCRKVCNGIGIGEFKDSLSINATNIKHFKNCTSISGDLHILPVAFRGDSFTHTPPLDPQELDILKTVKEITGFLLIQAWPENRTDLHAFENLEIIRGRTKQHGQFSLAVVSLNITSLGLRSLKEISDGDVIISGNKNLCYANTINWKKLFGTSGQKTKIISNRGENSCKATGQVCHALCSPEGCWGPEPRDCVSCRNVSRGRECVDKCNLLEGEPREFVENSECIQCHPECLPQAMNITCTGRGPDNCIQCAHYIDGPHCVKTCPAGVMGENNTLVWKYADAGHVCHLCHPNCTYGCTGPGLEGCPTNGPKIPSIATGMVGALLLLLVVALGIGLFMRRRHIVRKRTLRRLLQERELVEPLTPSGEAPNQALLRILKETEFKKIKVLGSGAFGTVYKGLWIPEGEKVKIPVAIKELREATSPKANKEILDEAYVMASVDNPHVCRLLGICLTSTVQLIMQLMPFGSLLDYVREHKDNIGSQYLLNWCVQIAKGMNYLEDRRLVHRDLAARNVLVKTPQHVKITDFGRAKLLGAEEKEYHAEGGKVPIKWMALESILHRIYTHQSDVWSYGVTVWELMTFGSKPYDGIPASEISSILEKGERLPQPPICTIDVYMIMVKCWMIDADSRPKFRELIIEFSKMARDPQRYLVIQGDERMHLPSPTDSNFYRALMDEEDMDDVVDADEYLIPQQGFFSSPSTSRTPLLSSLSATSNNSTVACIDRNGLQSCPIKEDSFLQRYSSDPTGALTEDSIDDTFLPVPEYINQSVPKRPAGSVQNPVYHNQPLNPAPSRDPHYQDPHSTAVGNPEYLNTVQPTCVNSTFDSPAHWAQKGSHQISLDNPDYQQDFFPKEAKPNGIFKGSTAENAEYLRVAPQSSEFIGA
experimental-protocol: TR-FRET assay for ERBB kinases
test-settings: geometric mean if measured more than once
metric-name: pIC50
To interpret pIC50, take it as minus log10 of a concentration measured in moles per litre.

Record O=C1CCC(N2C(=O)c3cccc(NCCOCCOCCOCCOCCOCCOCC#Cc4cccc5c4C(=O)N(C(C(=O)Nc4nccs4)c4cc(F)ccc4O)C5)c3C2=O)C(=O)N1 (centres unmarked) , field pIC50: 6.15

Recorded result, O=C1CCC(N2C(=O)c3ccc(N4CCC(CN5CCC(OCC#Cc6cccc7c6C(=O)N(C(C(=O)Nc6nccs6)c6cc(F)ccc6O)C7)CC5)CC4)cc3C2=O)C(=O)N1 (centres unmarked) , pIC50: 6.85
